# assay_system: ΔF508-CFTR (Homo sapiens, UniProt P13569, DEL508-508)
# Construct: expressed in transfected cells
# Sequence (P13569 with tags, fused parts or gaps DEL508-508): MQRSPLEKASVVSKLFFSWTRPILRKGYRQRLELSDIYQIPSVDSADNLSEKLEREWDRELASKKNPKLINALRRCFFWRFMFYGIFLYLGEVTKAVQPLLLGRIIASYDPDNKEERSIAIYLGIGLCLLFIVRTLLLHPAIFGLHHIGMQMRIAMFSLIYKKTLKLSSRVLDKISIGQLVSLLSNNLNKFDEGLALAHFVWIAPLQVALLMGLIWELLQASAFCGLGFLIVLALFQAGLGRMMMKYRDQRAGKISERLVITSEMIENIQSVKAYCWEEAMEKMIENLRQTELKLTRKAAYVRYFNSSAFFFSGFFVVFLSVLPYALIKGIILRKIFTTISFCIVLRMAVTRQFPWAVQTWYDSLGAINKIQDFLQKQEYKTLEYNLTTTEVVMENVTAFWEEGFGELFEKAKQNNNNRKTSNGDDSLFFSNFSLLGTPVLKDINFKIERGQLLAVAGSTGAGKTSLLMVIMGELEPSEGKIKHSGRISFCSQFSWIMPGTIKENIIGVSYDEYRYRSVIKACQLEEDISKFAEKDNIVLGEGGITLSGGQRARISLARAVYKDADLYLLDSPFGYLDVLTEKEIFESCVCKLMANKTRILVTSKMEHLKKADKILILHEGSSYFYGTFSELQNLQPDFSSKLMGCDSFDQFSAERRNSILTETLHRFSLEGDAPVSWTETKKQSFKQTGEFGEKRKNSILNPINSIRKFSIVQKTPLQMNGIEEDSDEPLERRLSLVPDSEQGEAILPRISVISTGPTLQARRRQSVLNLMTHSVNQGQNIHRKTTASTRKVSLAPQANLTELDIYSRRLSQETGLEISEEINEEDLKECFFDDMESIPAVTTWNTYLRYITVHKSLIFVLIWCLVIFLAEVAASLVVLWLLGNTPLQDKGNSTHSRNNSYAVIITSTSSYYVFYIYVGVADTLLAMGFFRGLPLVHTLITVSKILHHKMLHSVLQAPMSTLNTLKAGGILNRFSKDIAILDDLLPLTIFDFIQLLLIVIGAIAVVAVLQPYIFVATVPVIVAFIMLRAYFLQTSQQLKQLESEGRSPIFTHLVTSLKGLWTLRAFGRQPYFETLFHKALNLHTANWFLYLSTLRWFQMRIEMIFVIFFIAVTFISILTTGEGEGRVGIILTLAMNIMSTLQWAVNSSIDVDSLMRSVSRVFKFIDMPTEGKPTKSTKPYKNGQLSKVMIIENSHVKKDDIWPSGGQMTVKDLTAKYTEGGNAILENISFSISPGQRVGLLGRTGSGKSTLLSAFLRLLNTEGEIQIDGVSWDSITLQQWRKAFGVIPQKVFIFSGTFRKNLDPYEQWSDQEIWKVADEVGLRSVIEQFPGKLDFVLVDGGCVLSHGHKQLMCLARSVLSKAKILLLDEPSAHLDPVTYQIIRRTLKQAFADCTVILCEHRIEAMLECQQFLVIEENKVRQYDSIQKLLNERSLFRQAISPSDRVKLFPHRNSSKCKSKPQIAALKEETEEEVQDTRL
# assay_comment: Membrane potential optical (FRET/VIPR) assay, identification of potentiator compounds
# Type: cell-based
# recorded_conditions: Table 3; relative efficacy; assay not given
endpoint: % Activity

Examples with their reported % Activity follow.
| compound | % Activity |
| --- | --- |
| CC(C)(C)c1ccc(O)cc1NC(=O)c1c[nH]c2cccc(O)c2c1=O [Compound 609] | ++ (between 25% to 100%) |
| O=C(Nc1cc(Cl)cc(NS(=O)(=O)CCN2CCCCC2)c1)c1c[nH]c2ccccc2c1=O [Compound 133] | ++ (between 25% to 100%) |
| CCc1cc(Br)ccc1NC(=O)c1c[nH]c2ccccc2c1=O [Compound 263] | ++ (between 25% to 100%) |
| COc1ccc(Cl)cc1-c1cc2cc[nH]c2cc1NC(=O)c1c[nH]c2ccccc2c1=O [Compound 1] | ++ (between 25% to 100%) |
| C[S+]([O-])c1ccc(-c2ccccc2NC(=O)c2c[nH]c3ccccc3c2=O)cc1 (stereo not drawn) [Compound 134] | ++ (between 25% to 100%) |

Hey, quick one: what's % Activity for each of these?
1. O=C(Nc1ccccc1-c1ccco1)c1c[nH]c2ccccc2c1=O [Compound 115]
2. Cc1cccc2[nH]cc(C(=O)Nc3ccc(N4CC[C@H](F)C4)cc3C(F)(F)F)c(=O)c12 [Compound 626]
3. COc1c(C(=O)Nc2ccc(C(C)(C)C)c(O)c2)cnc2ccccc12 [Compound 415]

Data returned:
++ (between 25% to 100%)
++ (between 25% to 100%)
++ (between 25% to 100%)

Parameters: items (list). Returns: % Activity for each item.
1. Cc1ccc(C)c(NC(=O)c2c[nH]c3ccccc3c2=O)c1 [Compound 434]
2. O=C(Nc1cccnc1Oc1ccccc1F)c1c[nH]c2ccccc2c1=O [Compound 435]

Data returned:
++ (between 25% to 100%)
++ (between 25% to 100%)

Provide the reported % Activity of each entry below, same order.
1. CC(C)c1ccc(NC(=O)c2c[nH]c3ccccc3c2=O)c(C(F)(F)F)c1 [Compound 47]
2. COc1cc(NC(=O)c2c[nH]c3ccccc3c2=O)ccc1C(C)(C)C [Compound 2]
3. CCOc1cc(NC(=O)c2c[nH]c3ccccc3c2=O)c(OCC)cc1NC(=O)c1ccccc1 [Compound 7]
4. Cn1cnnc1-c1ccc(NC(=O)c2c[nH]c3ccccc3c2=O)cc1 [Compound 301]

Data returned:
++ (between 25% to 100%)
++ (between 25% to 100%)
+ (<25%)
+ (<25%)

For every item below, please supply its % Activity.
1. O=C(Nc1ccc(CO)cc1)c1c[nH]c2ccccc2c1=O [Compound 209]
2. Cn1c(=O)oc2ccc(NC(=O)c3c[nH]c4ccccc4c3=O)cc21 [Compound 474]

Data returned:
["++ (between 25% to 100%)", "+ (<25%)"]

Data request: Which % Activity is reported for this compound? O=C(Nc1ccc2ccccc2n1)c1c[nH]c2ccccc2c1=O [Compound 19]
Data returned: + (<25%)

---

# assay_system: ΔF508-CFTR (Homo sapiens, UniProt P13569, DEL508-508)
# assay_comment: Membrane potential optical (FRET/VIPR) assay, identification of potentiator compounds
# recorded_conditions: Table 3; assay not given
pEC50: −log10 of the molar value.
endpoint: pEC50

Your task in this section: give pEC50 for each listed record.
1. Cc1cc(C2CCCCC2)ccc1NC(=O)c1c[nH]c2ccccc2c1=O
2. C[C@H]1CCCN1c1ccc(NC(=O)c2c[nH]c3ccccc3c2=O)c(C(F)(F)F)c1

Data returned:
> 5.00
> 5.00

Dear colleague, could you please provide pEC50 for the compounds listed below?
1. Cc1ccc2cccc(NC(=O)c3c[nH]c4ccccc4c3=O)c2n1
2. O=C(Nc1ccc2c(c1)NCC2)c1c[nH]c2ccccc2c1=O
3. O=C(Nc1cc(O)c(C23CC4CC(CC(C4)C2)C3)cc1F)c1cnc2ccccc2c1O

Data returned:
1. > 5.00
2. > 5.00
3. > 5.00

Could you report pEC50 for every entry in the following list?
1. O=C(Nc1ccc2cc[nH]c2c1)c1cnc2ccc(F)cc2c1O
2. O=C(Nc1ccc(CO)cc1)c1c[nH]c2ccccc2c1=O
3. O=C(Nc1ccc(C(F)(F)F)c(O)c1)c1c[nH]c2ccccc2c1=O
4. CC(C)(C)c1ccc(NC(=O)c2c[nH]c3ccccc3c2=O)cc1N
5. O=C(Nc1ccc2c(c1)S(=O)(=O)C=C2)c1c[nH]c2ccccc2c1=O

Data returned:
1. > 5.00
2. 4.60 to 5.00
3. > 5.00
4. > 5.00
5. 4.22 to 4.60

For the 5 compounds below, give their pEC50 values.
1. CC(C)c1ccc(NC(=O)c2c[nH]c3ccccc3c2=O)cc1O
2. CC1(c2ccc(NC(=O)c3c[nH]c4ccccc4c3=O)cc2)COC1
3. O=C(Nc1cc(NS(=O)(=O)CCN2CCCCC2)cc(C(F)(F)F)c1)c1c[nH]c2ccccc2c1=O
4. CC(=O)N1CCc2ccc(NC(=O)c3c[nH]c4ccccc4c3=O)cc21
5. COc1c(C(=O)Nc2ccc(C(C)(C)C)c(O)c2)cnc2ccccc12

Data returned:
> 5.00
> 5.00
4.60 to 5.00
4.60 to 5.00
> 5.00

// for each compound in input: emit pEC50
1. COC(=O)c1ccc(-c2ccccc2NC(=O)c2c[nH]c3ccccc3c2=O)cc1
2. CN(c1ccc(F)cc1)S(=O)(=O)c1ccc2[nH]cc(C(=O)Nc3cc4[nH]ccc4cc3C(C)(C)C)c(=O)c2c1

Data returned:
1: > 5.00; 2: > 5.00

---

# assay_system: ΔF508-CFTR (Homo sapiens, UniProt P13569, DEL508-508)
# assay_comment: Membrane potential optical (FRET/VIPR) assay, identification of potentiator compounds
# recorded_conditions: Table 3; assay not given
pEC50: −log10 of the molar value.
Kindly supply the reported pEC50 values for the records listed here.

Give one value of pEC50 per listed compound.
1. CC(C)(C)c1cc2ccc(NC(=O)c3c[nH]c4ccccc4c3=O)cc2[nH]1
2. Cc1cccc2[nH]cc(C(=O)Nc3ccc(OC(C)C)c(O)c3)c(=O)c12
3. O=C(Nc1cccc2ncccc12)c1c[nH]c2ccccc2c1=O
4. Cc1cccc2[nH]cc(C(=O)Nc3ccc(OC(C)C)cc3C(F)(F)F)c(=O)c12
5. Cc1c(NC(=O)c2c[nH]c3ccccc3c2=O)cccc1C(F)(F)F

Data returned:
1: > 5.00; 2: > 5.00; 3: 4.22 to 4.60; 4: > 5.00; 5: > 5.00

Each compound below has a recorded value; state its pEC50.
1. COc1ccc(-c2ccccc2NC(=O)c2c[nH]c3ccccc3c2=O)cc1OC
2. CC(C)(C)c1ccc(NC(=O)c2c[nH]c3ccccc3c2=O)cc1N1CCCCC1
3. Cc1cccc2[nH]cc(C(=O)Nc3ccc(N4[C@H](C)CC[C@@H]4C)cc3C(F)(F)F)c(=O)c12
4. CNc1ccc(C(C)C)c(NC(=O)c2c[nH]c3ccccc3c2=O)c1
5. O=C(Nc1ccccc1)c1c[nH]c2cc(Cl)ccc2c1=O
6. O=C(Nc1ccncc1)c1c[nH]c2ccccc2c1=O

Data returned:
1. > 5.00
2. > 5.00
3. > 5.00
4. > 5.00
5. > 5.00
6. 4.22 to 4.60

---

# assay_system: ΔF508-CFTR (Homo sapiens, UniProt P13569, DEL508-508)
# assay_comment: Membrane potential optical (FRET/VIPR) assay, identification of potentiator compounds
# recorded_conditions: Table 3; assay not given
endpoint: EC50

Check out these entries, answers already filled in.
| compound | endpoint | measurement |
| --- | --- | --- |
| NS(=O)(=O)c1cccc(NC(=O)c2c[nH]c3ccccc3c2=O)c1 [Compound 9] | EC50 | 25 to 60 µM |
| Cc1csc(-c2ccccc2NC(=O)c2c[nH]c3ccccc3c2=O)c1 [Compound 151] | EC50 | < 10 µM |
| O=C(Nc1ccc(Oc2ccccc2)cc1)c1c[nH]c2ccccc2c1=O [Compound 267] | EC50 | < 10 µM |
| O=C(Nc1ccc(N2CCCC2)cc1C(F)(F)F)c1c[nH]c2ccc(F)cc2c1=O [Compound 562] | EC50 | < 10 µM |

Hi! Can you tell me EC50 for each of these compounds?
1. COc1cccc(NC(=O)c2c[nH]c3ccccc3c2=O)c1 [Compound 408]
2. CC(C)(C)c1ccccc1Oc1ccccc1NC(=O)c1c[nH]c2ccccc2c1=O [Compound 178]
3. O=C(Nc1ccc2cc[nH]c2c1)c1cnc2cc(C(F)(F)F)cc(C(F)(F)F)c2c1O [Compound 130]
4. CCC(CC)(c1cc(F)c(NC(=O)c2cnc3ccccc3c2O)cc1O)C(C)(C)C [Compound 153]
5. CCOc1cccc2c(=O)c(C(=O)Nc3cc(O)c(C(C)(C)C)cc3C(C)(C)C)c[nH]c12 [Compound 616]

Data returned:
1: < 10 µM; 2: < 10 µM; 3: < 10 µM; 4: < 10 µM; 5: 10 to 25 µM

These data points were gathered from patent US8614327B2.
